# assay target: T1, cynomolgus macaque (Macaca fascicularis) CD39 (Macaca fascicularis, UniProt P49961 7-510 (human entry))
# T1 construct: On engineered CHO cells and on primary cyno B cells and monocytes; also called cyno CD39; cCD39
# T1 chain: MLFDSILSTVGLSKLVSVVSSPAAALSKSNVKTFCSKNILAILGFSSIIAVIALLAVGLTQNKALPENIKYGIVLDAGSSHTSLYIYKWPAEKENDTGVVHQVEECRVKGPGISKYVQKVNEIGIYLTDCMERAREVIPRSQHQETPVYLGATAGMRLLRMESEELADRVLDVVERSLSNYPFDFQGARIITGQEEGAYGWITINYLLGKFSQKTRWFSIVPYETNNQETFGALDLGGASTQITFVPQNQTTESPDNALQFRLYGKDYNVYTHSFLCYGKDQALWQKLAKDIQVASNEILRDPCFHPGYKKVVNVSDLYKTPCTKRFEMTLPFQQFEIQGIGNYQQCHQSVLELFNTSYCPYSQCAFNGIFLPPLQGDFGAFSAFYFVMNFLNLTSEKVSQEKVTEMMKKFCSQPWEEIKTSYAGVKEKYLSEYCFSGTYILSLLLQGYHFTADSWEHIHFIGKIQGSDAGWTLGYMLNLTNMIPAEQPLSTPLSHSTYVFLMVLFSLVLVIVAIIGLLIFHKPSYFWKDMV
# experiment summary: flow cytometry, 100 nM IgG, MFI on CHO-cCD39 / MFI on parental CHO;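 further: antibodies bound to the cells for 30 min in PBS, then bound IgG was revealed with a fluorescent goat anti-human IgG secondary antibody, 20 min on ice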

binder	Cell Binding (FOB) (fold over background)
31393 (antibody, human IgG4 S228P, kappa, V domains shown) VH: QVQLVQSGAEVKKPGSSVKVSCKASGGTFESYGISWVRQAPGQGLEWMGSIIPEFGIANYAQKFQGRVTITADESTSTTYMELSSLRSEDTAVYYCARESGGYRDHRLDVWGQGTMVTVSS VL: EIVMTQSPATLSVSPGERATLSCRASQSVGSNLAWYQQKPGQAPRLLIYGASTRATGIPARFSGSGSGTEFTLTISSLQSEDFAVYYCQQYLLWPLTFGGGTKVEIKR	2960
31415 (antibody, human IgG4 S228P, kappa, V domains shown) VH: QVQLVQSGAEVKKPGASVKVSCKASGYTFTSYQMHWVRQAPGQGLEWMGRINPSGGSTWYAQKFQGRVTMTRDTSTSTVYMELSSLRSEDTAVYYCARGKREGGTEYLRSWGQGTLVTVSS VL: EIVLTQSPGTLSLSPGERATLSCRASQSVSSSYLAWYQQKPGQAPRLLIYGASSRATGIPDRFSGSGSGTDFTLTISRLEPEDFAVYYCQQYHSYITFGGGTKVEIKR	3360
27589 (antibody, human IgG4 S228P, kappa, V domains shown) VH: QVQLVQSGAEVKKPGSSVKVSCKASGGTFSSYAISWVRQAPGQGLEWMGGIIPIFGTANYAQKFQGRVTITADESTSTAYMELSSLRSEDTAVYYCARDSGYHRHYSDYWGQGTLVTVSS VL: DIQMTQSPSTLSASVGDRVTITCRASQSISSWLAWYQQKPGKAPKLLIYKASSLESGVPSRFSGSGSGTEFTLTISSLQPDDFATYYCQQYGLFPITFGGGTKVEIKR	531
